tested on: SNB-19 CNS; experiment: NCI-60 one-dose screen, 48 h (100 = growth as untreated, 0 = no growth, -100 = all killed); conditions: 10 µM unless noted
Compounds without any hit were thinned out: in the full panel of roughly 83,000, 20% have a hit.
measured-metric: growth (%)
Express the result in % but write the number alone.

CN(C)c1ccc(/C=C\N=Nc2ccc(Br)cc2)cc1 yielded growth of 96.2

Query CCC1=C[C@@H]2CN(C1)Cc1c([nH]c3ccccc13)[C@@](C(=O)OC)(c1cc3c(cc1OC)N(C=O)[C@H]1[C@@](O)(C(=O)OC)[C@H](OC(C)=O)[C@]4(CC)[C@@H]5C[C@@H]5CN5CC[C@]31[C@@H]54)C2 yields growth of 28.3

Input Cc1ccccc1C(=O)c1ccccc1C(=O)O . Output growth: 111

Query O=C(Nc1cccc(C(F)(F)F)c1)Nc1ccc(OCc2nnc(-c3ccccc3)o2)c(F)c1 yields growth of 46.6

Form field growth, entry Cc1nn(-c2ccc(Cl)cc2)c(=O)n1CCOc1ccccc1Cl : 115

* * *

Consider the following molecules; for each one, report its growth.
test system: MOLT-4 leukemia; experiment: NCI-60 one-dose screen, 48 h (100 = growth as untreated, 0 = no growth, -100 = all killed); details: 10 µM unless noted
About 83,000 compounds went through this panel and 20% of them were active in at least one assay; those are over-represented in the sample as a whole. Activity calls are given as the source filed them. How the source made its calls: active means growth percent below 10; inactive means the rest.

// growth value for Nc1c(C(=O)Nc2ccccc2)sc2nc3c(cc12)CCC3 : 90.3% (inactive)

molecule Nc1c(C(=O)Nc2ccccc2)sc2nc3c(cc12)CCCCC3 , growth observed: 29.2% (inactive)

Notebook: CCCCCCCCCCC/C=C\C[C@H](O)C/C=C1/C(=O)C=C[C@@H]1C/C=C\CCCC(=O)OC , growth read as -0.235% (active)

Reported growth for COc1ccc(-c2nc3sccn3c2-c2ccnc(NCCNS(=O)(=O)c3ccc(C(F)(F)F)cc3)n2)cc1 was 0.208% (active)

# growth (molecule: Cc1sc(N=Nc2ccc(N(C)C)cc2)[n+]([O-])c1C ) is 103% (inactive)

// growth value for COC1=CC(c2ccc[nH]2)=N/C1=C\c1[nH]c(C)c(C(=O)CCC(=O)Oc2ccc3c(c2)CCC2C3CC[C@]3(C)[C@@H](O)CC[C@@H]23)c1C (some centres undefined) : -9.7% (active)

// recorded growth for C=C1C(=O)O[C@H]2[C@H]1CC/C(Cn1cc(-c3ccccc3C(F)(F)F)nn1)=C\CC[C@@]1(C)O[C@@H]21 : -11.7% (active)

The molecule listed as COc1cc(C2C=C(C)N=C3SC=CN32)cc(OC)c1OC (centres undefined) has a reported growth of 102% (inactive)

Lab note: COC1=CC(c2ccc[nH]2)=N/C1=C\c1[nH]c(C)c(CCCn2cc(CCCCCCCCC[C@@H]3Cc4cc(O)ccc4C4CC[C@]5(C)[C@@H](O)CC[C@H]5C43)nn2)c1C (some centres undefined) gave growth of 67.1% (inactive)

* * *

tested on: T-47D breast; experiment: NCI-60 one-dose screen, 48 h; conditions: 10 µM unless noted
The panel holds about 83,000 compounds, 20% with a hit somewhere; the sample as a whole holds those more often. Calls of active or inactive are those of the source. How the source made its calls: active means growth percent below 10; inactive means the rest.
Entry note: the call must match one of 1 (yes) (active), 0 (no) (inactive)

Prompt: // param item: COc1cc(Cn2c(-c3nonc3N)nc3ccccc32)ccc1C ; yields the recorded call
Response: 0 (no)

Prompt: Which result was noted for this molecule in the test: COc1ccc(OC)c(C(=O)c2oc3ccc(Br)cc3c2N)c1
Response: 0 (no)

Prompt: Name the outcome recorded for CC(C)(C)OC(=O)N[C@@H](Cc1ccccc1)C(=O)N(Cc1ccccc1)C1(C(=O)NCc2ccccc2)CCN(Cc2ccccc2)CC1 in the assay.
Response: 0 (no)

Prompt: // param item: CC/C=C\C[C@H](O)C/C=C1/C(=O)C(Cl)=C[C@@H]1C/C=C\CCCC(=O)O ; yields the recorded call
Response: 0 (no)

Prompt: Which result was noted for this molecule in the test: CSc1ccccc1C#C/C=C\C#Cc1ccccc1N1CCCCC1=O
Response: 0 (no)

Prompt: What outcome does the record of this test show for Cc1ccc(OCCn2c(C)nn(-c3ccc(Cl)cc3)c2=O)cc1 ?
Response: 0 (no)

Prompt: Tell me the assay call for COc1ccc(C2=CC(c3ccc(Oc4ccnc5cc(Cl)ccc45)c(OC)c3)c3c(nc(OC)[nH]c3=O)N2)cc1 (stereo not given) please.
Response: 0 (no)

Prompt: Which result was noted for this molecule in the test: COc1ccc(/C=C(\C#N)c2ccc([N+](=O)[O-])cc2)c2ccccc12
Response: 0 (no)

Prompt: I'd appreciate the recorded outcome for COc1cccc(-c2nc3sccn3c2-c2ccnc(NCCCNS(=O)(=O)c3ccccc3)n2)c1 from this test.
Response: 1 (yes)

Prompt: Called result for NC(=O)NNC(=O)c1ccccc1
Response: 0 (no)
